Recorded values, source PubChem BioAssay AID248.

Field: T/C. Provide a value for each of the molecules that follow.
test system: L1210 leukemia ip in BDF1 mice, survival T/C; experiment: NCI In Vivo Anticancer Drug Screen. Data for tumor model L1210 Leukemia (intraperitoneal) in B6D2F1 (BDF1) mice; details: endpoint: mean survival time; dose: 200.0 mg/kg/injection; schedule: Q04DX003 (ip); vehicle: Klucel (hydroxypropylcellulose) (HPC); higher = longer survival
Toxic doses and inconclusive results are not listed.

Illustrative cases are given below, each with its answer.
INSERT INTO assay_data (molecule, observed) VALUES
  ('CNC(=S)NNc1ccccc1', '104 % of control'),
  ('Cc1cc(C2C(O)C(c3cc(C)on3)C2(C)O)no1 (stereo unspecified)', '97 % of control'),
  ('O=[N+]([O-])c1cccnc1Cl', '91 % of control'),
  ('O=C(CI)Nc1ccc(NC(=O)CI)cc1', '95 % of control'),
  ('N#C/C(=C/c1ccnc2ccccc12)c1ccccc1', '101 % of control'),
  ('NS(=O)(=O)c1ccc(NC(=O)Nc2ccccc2Cl)cc1', '106 % of control'),
  ('CCCCCCCCCCCCCCCCc1c(C)ncn(C)c1=O', '101 % of control'),
  ('NCC(=O)c1cc2ccccc2[n+]([O-])c1', '97 % of control'),
  ('CCOC(=O)N1Cc2cc3ccccc3nc2C1CC(=O)O (stereo unspecified)', '88 % of control'),
  ('CC(=O)Nc1ccc(OC(=O)Nc2cccc3ccccc23)cc1', '96 % of control');

Here are 3 molecules. What values of T/C were reported for them?
1. O=C(/C=C\c1ccc(O)cc1)c1ccccc1
2. Cc1ccc(C)c(NC(=O)Nc2ccccc2)c1
3. S=C1NCCCS1

Found:
["96 % of control", "96 % of control", "95 % of control"]

====

system: L1210 leukemia ip in BDF1 mice, survival T/C; assay: NCI In Vivo Anticancer Drug Screen. Data for tumor model L1210 Leukemia (intraperitoneal) in B6D2F1 (BDF1) mice; conditions: endpoint: mean survival time; dose: 100.0 mg/kg/injection; schedule: Q01DX001 (ip); vehicle: saline; higher = longer survival
Inconclusive results and toxic doses are left out.
MEASUREMENT NAME: T/C

INSERT INTO assay_data (compound, observed) VALUES
  ('O=S(=O)(CBr)CBr', '98 % of control'),
  ('CCN(CC)c1ccc(SC#N)cc1', '101 % of control'),
  ('COc1ncnc(=O)[nH]1', '97 % of control');

Here are 4 compounds. What values of T/C were reported for them?
1. CC(C)OP1(=O)OCC(C)O1 (configuration not stated)
2. CC(=O)NC(CS)C(=O)O (configuration not stated)
3. O=C1NC(=S)SC1C(Cc1ccccc1)Cc1ccccc1 (configuration not stated)
4. CCC(=O)C(CCN(C)C)(c1ccccc1)c1ccccc1

Found:
1. 102 % of control
2. 96 % of control
3. 97 % of control
4. 110 % of control

====

Field: T/C. Provide a value for each of the molecules that follow.
system: L1210 leukemia ip in BDF1 mice, survival T/C; test: NCI In Vivo Anticancer Drug Screen. Data for tumor model L1210 Leukemia (intraperitoneal) in B6D2F1 (BDF1) mice; conditions: endpoint: mean survival time; dose: 200.0 mg/kg/injection; schedule: Q01DX009 (ip); vehicle: Klucel (hydroxypropylcellulose) (HPC); higher = longer survival
Inconclusive results and toxic doses are left out.

INSERT INTO results (sample_smiles, target_desc, observed) VALUES
  ('CCCCCCCCCCCCCCCCCC(N)=O', 'L1210 leukemia ip in BDF1 mice, survival T/C', '87 % of control'),
  ('COc1cc(NC(=O)Nc2cccc(C(C)=O)c2)c(OC)cc1Cl', 'L1210 leukemia ip in BDF1 mice, survival T/C', '110 % of control'),
  ('CCCCCCCCCCCC(=O)Nc1cc(C)ccc1N=Nc1ccc(C)cc1', 'L1210 leukemia ip in BDF1 mice, survival T/C', '88 % of control');

Lab note: next molecule to report on.
Lookup: Look at this molecule and give its reported T/C. O=c1[nH]c(=O)[nH]c(=O)[nH]1
Found: 91 % of control
